Source listed as ChEMBL document CHEMBL4312020.

measurement.description: in vitro
condition.description: rat, liver microsomes

smiles.code: CCC(CC)O[C@@H]1C=C(C(=O)O)C[C@H](Nc2ncccc2N)[C@H]1NC(C)=O
uom: %
remaining at 1 h: 85.5

---

measurement.description: in vitro
condition.description: human, liver microsomes
property.measured: remaining at 1 h (%)

smiles.code: CCC(CC)O[C@@H]1C=C(C(=O)O)C[C@H](Nc2ncccc2N)[C@H]1NC(C)=O
endpoint.value: 87.5

---

measurement.target: Neuraminidase (Influenza A virus (A/Puerto Rico/8/1934(H1N1))) (UniProt P03468)
Sequence (P03468 whole entry): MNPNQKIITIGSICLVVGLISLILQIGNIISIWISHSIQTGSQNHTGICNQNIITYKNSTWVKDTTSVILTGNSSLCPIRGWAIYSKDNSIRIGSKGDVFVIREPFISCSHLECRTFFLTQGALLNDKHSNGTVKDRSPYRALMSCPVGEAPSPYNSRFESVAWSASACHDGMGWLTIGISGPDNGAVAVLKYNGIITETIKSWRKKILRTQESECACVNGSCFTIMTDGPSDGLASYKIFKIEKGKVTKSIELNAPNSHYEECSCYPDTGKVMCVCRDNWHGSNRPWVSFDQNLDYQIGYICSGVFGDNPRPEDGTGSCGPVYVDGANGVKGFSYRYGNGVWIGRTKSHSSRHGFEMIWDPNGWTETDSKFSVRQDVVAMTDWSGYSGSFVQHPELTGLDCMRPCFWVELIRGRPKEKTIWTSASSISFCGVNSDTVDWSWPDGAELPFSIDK
condition.description: Influenza A virus (A/Anhui/1/2005(H5N1)); at 100 µM
The following ranges of inhibition define the classes used here: low: < 40%; moderate: ≥ 40% and < 80%; high: ≥ 80%

smiles.code: CCC(CC)O[C@@H]1C=C(C(=O)O)C[C@H](Nc2ccc(N)cn2)[C@H]1NC(C)=O
measurement.target: Neuraminidase (Influenza A virus (A/Puerto Rico/8/1934(H1N1))) (UniProt P03468)
class: moderate

smiles.code: CCC(CC)O[C@@H]1C=C(C(=O)O)C[C@H](Nc2nc(OC)ccc2NC(=O)c2ccccc2)[C@H]1NC(C)=O
measurement.target: Neuraminidase (Influenza A virus (A/Puerto Rico/8/1934(H1N1))) (UniProt P03468)
class: moderate

smiles.code: CCC(CC)O[C@@H]1C=C(C(=O)O)C[C@H](Nc2ncccc2[N+](=O)[O-])[C@H]1NC(C)=O
measurement.target: Neuraminidase (Influenza A virus (A/Puerto Rico/8/1934(H1N1))) (UniProt P03468)
class: moderate

smiles.code: CCC(CC)O[C@@H]1C=C(C(=O)O)C[C@H](Nc2ncc(Br)cc2NC(C)=O)[C@H]1NC(C)=O
measurement.target: Neuraminidase (Influenza A virus (A/Puerto Rico/8/1934(H1N1))) (UniProt P03468)
class: moderate

smiles.code: CCC(CC)O[C@@H]1C=C(C(=O)O)C[C@H](Nc2ncc(C)cc2N)[C@H]1NC(C)=O
measurement.target: Neuraminidase (Influenza A virus (A/Puerto Rico/8/1934(H1N1))) (UniProt P03468)
class: moderate

smiles.code: CCC(CC)O[C@@H]1C=C(C(=O)O)C[C@H](Nc2ccc(NC(C)=O)cn2)[C@H]1NC(C)=O
measurement.target: Neuraminidase (Influenza A virus (A/Puerto Rico/8/1934(H1N1))) (UniProt P03468)
class: low

smiles.code: CCC(CC)O[C@@H]1C=C(C(=O)O)C[C@H](Nc2ncc(Br)cc2NC(=O)c2ccccc2)[C@H]1NC(C)=O
measurement.target: Neuraminidase (Influenza A virus (A/Puerto Rico/8/1934(H1N1))) (UniProt P03468)
class: low

smiles.code: CCC(CC)O[C@@H]1C=C(C(=O)O)C[C@H](Nc2nc(OC)ccc2[N+](=O)[O-])[C@H]1NC(C)=O
measurement.target: Neuraminidase (Influenza A virus (A/Puerto Rico/8/1934(H1N1))) (UniProt P03468)
class: high

smiles.code: CCC(CC)O[C@@H]1C=C(C(=O)O)C[C@H](Nc2ncccc2N)[C@H]1NC(C)=O
measurement.target: Neuraminidase (Influenza A virus (A/Puerto Rico/8/1934(H1N1))) (UniProt P03468)
class: high

smiles.code: CCC(CC)O[C@@H]1C=C(C(=O)O)C[C@H](Nc2ccc([N+](=O)[O-])cn2)[C@H]1NC(C)=O
measurement.target: Neuraminidase (Influenza A virus (A/Puerto Rico/8/1934(H1N1))) (UniProt P03468)
class: high

smiles.code: CCC(CC)O[C@@H]1C=C(C(=O)O)C[C@H](Nc2ncc(Br)cc2[N+](=O)[O-])[C@H]1NC(C)=O
measurement.target: Neuraminidase (Influenza A virus (A/Puerto Rico/8/1934(H1N1))) (UniProt P03468)
class: moderate

smiles.code: CCC(CC)O[C@@H]1C=C(C(=O)O)C[C@H](Nc2ncc(Br)cc2N)[C@H]1NC(C)=O
measurement.target: Neuraminidase (Influenza A virus (A/Puerto Rico/8/1934(H1N1))) (UniProt P03468)
class: moderate

smiles.code: CCCC(=O)Nc1cccnc1N[C@H]1CC(C(=O)O)=C[C@@H](OC(CC)CC)[C@@H]1NC(C)=O
measurement.target: Neuraminidase (Influenza A virus (A/Puerto Rico/8/1934(H1N1))) (UniProt P03468)
class: low

smiles.code: CCCC(=O)Nc1ccc(OC)nc1N[C@H]1CC(C(=O)O)=C[C@@H](OC(CC)CC)[C@@H]1NC(C)=O
measurement.target: Neuraminidase (Influenza A virus (A/Puerto Rico/8/1934(H1N1))) (UniProt P03468)
class: moderate

smiles.code: CCC(CC)O[C@@H]1C=C(C(=O)O)C[C@H](Nc2ccc(NC(=O)c3ccccc3)cn2)[C@H]1NC(C)=O
measurement.target: Neuraminidase (Influenza A virus (A/Puerto Rico/8/1934(H1N1))) (UniProt P03468)
class: low

smiles.code: CCCC(=O)Nc1cc(Br)cnc1N[C@H]1CC(C(=O)O)=C[C@@H](OC(CC)CC)[C@@H]1NC(C)=O
measurement.target: Neuraminidase (Influenza A virus (A/Puerto Rico/8/1934(H1N1))) (UniProt P03468)
class: moderate

smiles.code: CCC(=O)Nc1ccc(OC)nc1N[C@H]1CC(C(=O)O)=C[C@@H](OC(CC)CC)[C@@H]1NC(C)=O
measurement.target: Neuraminidase (Influenza A virus (A/Puerto Rico/8/1934(H1N1))) (UniProt P03468)
class: low

smiles.code: CCC(CC)O[C@@H]1C=C(C(=O)O)C[C@H](Nc2ncccc2NC(=O)c2ccccc2)[C@H]1NC(C)=O
measurement.target: Neuraminidase (Influenza A virus (A/Puerto Rico/8/1934(H1N1))) (UniProt P03468)
class: low

smiles.code: CCC(CC)O[C@@H]1C=C(C(=O)O)C[C@H](Nc2nc(OC)ccc2NC(C)=O)[C@H]1NC(C)=O
measurement.target: Neuraminidase (Influenza A virus (A/Puerto Rico/8/1934(H1N1))) (UniProt P03468)
class: moderate

smiles.code: CCC(CC)O[C@@H]1C=C(C(=O)O)C[C@H](Nc2nccc(C)c2N)[C@H]1NC(C)=O
measurement.target: Neuraminidase (Influenza A virus (A/Puerto Rico/8/1934(H1N1))) (UniProt P03468)
class: low

---

measurement.description: AUC in Sprague-Dawley rat at 10 mg/kg, iv measured upto 24 hrs by LC-MS/MS analysis
Assay type: ADME, organism-based
Set-up: dose 10 mg/kg, time < 24 hr, route intravenous
condition.description: in vivo
property.measured: AUC at 24 h (ng·h/mL)

smiles.code: CCC(CC)O[C@@H]1C=C(C(=O)O)C[C@H](Nc2ncccc2N)[C@H]1NC(C)=O
endpoint.value: 4540

---

measurement.description: Stability in human plasma assessed as compound remaining incubated for 0 mins by LC-MS/MS analysis
Type: ADME, cell-free
condition.description: read-out: Stability
# remaining at 0 h per record follows

compound: CC(C)[N+](C)(CCOC(=O)C1c2ccccc2Oc2ccccc21)C(C)C [PROPANTHELINE BROMIDE]
remaining at 0 h (%): 100
--
compound: CCC(CC)O[C@@H]1C=C(C(=O)O)C[C@H](Nc2ncccc2N)[C@H]1NC(C)=O
remaining at 0 h (%): 100

---

Listing of recorded half-life at 1 h by entry.
measurement.description: in vitro
condition.description: rat, liver microsomes

molecule: CCC(CC)O[C@@H]1C=C(C(=O)O)C[C@H](Nc2ncccc2N)[C@H]1NC(C)=O
measurement.qualifier: >
half-life at 1 h (min): 145

molecule: O=C(O)Cc1ccccc1Nc1c(Cl)cccc1Cl [DICLOFENAC]
measurement.qualifier: =
half-life at 1 h (min): 17.1

---

measurement.description: AUC in Sprague-Dawley rat at 50 mg/kg, po measured upto 24 hrs by LC-MS/MS analysis
Format: ADME, organism-based
Set-up: dose 50 mg/kg, time < 24 hr, route oral
condition.description: in vivo

smiles.code: CCC(CC)O[C@@H]1C=C(C(=O)O)C[C@H](Nc2ncccc2N)[C@H]1NC(C)=O
AUC at 24 h, ng·h/mL: 358

---

Recorded measurements of remaining at 0.5 h, one per entry
measurement.description: Stability in human plasma assessed as compound remaining incubated for 30 mins by LC-MS/MS analysis
Type: ADME, cell-free
condition.description: read-out: Stability

compound: CCC(CC)O[C@@H]1C=C(C(=O)O)C[C@H](Nc2ncccc2N)[C@H]1NC(C)=O
remaining at 0.5 h [%]: 103

compound: CC(C)[N+](C)(CCOC(=O)C1c2ccccc2Oc2ccccc21)C(C)C [PROPANTHELINE BROMIDE]
remaining at 0.5 h [%]: 34.8

---

measurement.target: Neuraminidase (Influenza A virus (A/Puerto Rico/8/1934(H1N1)))
condition.description: Influenza A virus (A/Anhui/1/2005(H5N1)); at 1 µM
property.measured: inhibition (%)

smiles.code: CCC(CC)O[C@@H]1C=C(C(=O)O)C[C@H](Nc2nc(OC)ccc2[N+](=O)[O-])[C@H]1NC(C)=O
property.measured: inhibition
uom: %
endpoint.value: 27.9
//
smiles.code: CCCC(=O)Nc1cc(Br)cnc1N[C@H]1CC(C(=O)O)=C[C@@H](OC(CC)CC)[C@@H]1NC(C)=O
property.measured: inhibition
uom: %
endpoint.value: 6.8
//
smiles.code: CCC(CC)O[C@@H]1C=C(C(=O)O)C[C@H](Nc2nc(OC)ccc2NC(C)=O)[C@H]1NC(C)=O
property.measured: inhibition
uom: %
endpoint.value: 10.1
//
smiles.code: CCC(CC)O[C@@H]1C=C(C(=O)O)C[C@H](Nc2ncc(Br)cc2NC(=O)C(C)C)[C@H]1NC(C)=O
property.measured: inhibition
uom: %
endpoint.value: 19.1
//
smiles.code: CCC(CC)O[C@@H]1C=C(C(=O)O)C[C@H](Nc2ccc([N+](=O)[O-])cn2)[C@H]1NC(C)=O
property.measured: inhibition
uom: %
endpoint.value: 8.9
//
smiles.code: CCCC(=O)Nc1ccc(OC)nc1N[C@H]1CC(C(=O)O)=C[C@@H](OC(CC)CC)[C@@H]1NC(C)=O
property.measured: inhibition
uom: %
endpoint.value: 16
//
smiles.code: CCC(CC)O[C@@H]1C=C(C(=O)O)C[C@H](Nc2ccc(NC(C)=O)cn2)[C@H]1NC(C)=O
property.measured: inhibition
uom: %
endpoint.value: 9.6
//
smiles.code: CCC(CC)O[C@@H]1C=C(C(=O)O)C[C@H](Nc2ncccc2[N+](=O)[O-])[C@H]1NC(C)=O
property.measured: inhibition
uom: %
endpoint.value: 9.1
